assayedSystem: T1, recombinant chicken leptin binding domain (chLBD) (chicken)
T1 construct: The 1:1 complex with leptin has a predicted mass of 40.5 kDa, so chLBD is about 24.5 kDa
testName: SPR (Biacore 3000), leptin mutant amine-coupled to CM5 chip, soluble chLBD as analyte, 25 C, 1:1 Langmuir fit, mean of 2 experiments
valueType: kon (M⁻¹ s⁻¹)
Expressed in M⁻¹ s⁻¹, but write only the number.

Field: example entries. Status: answers known.
human leptin L39A/D40A/F41A/I42A mutant (ligand, Expressed with an extra Met-Ala at the N-terminus, Met removed; also called L39A/D40A/F41A/I42A (human)) VPIQKVQDDTKTLIKTIVTRINDISHTQSVSSKQKVTGAAAAPGLHPILTLSKMDQTLAVYQQILTSMPSRNVIRISNDLENLRDLLHVLAFSKSCHLPWASGLETLDSLGGVLEASGYSTEVVALSRLQGSLQDMLWQLDLSPGC = 135000
human leptin L39A/D40A mutant (ligand, also called L39A/D40A (human)) VPIQKVQDDTKTLIKTIVTRINDISHTQSVSSKQKVTGAAFIPGLHPILTLSKMDQTLAVYQQILTSMPSRNVIRISNDLENLRDLLHVLAFSKSCHLPWASGLETLDSLGGVLEASGYSTEVVALSRLQGSLQDMLWQLDLSPGC = 545000

Record summary for human leptin L39A/D40A/F41A mutant (ligand, Expressed with an extra Met-Ala at the N-terminus, Met removed; also called L39A/D40A/F41A (human)) VPIQKVQDDTKTLIKTIVTRINDISHTQSVSSKQKVTGAAAIPGLHPILTLSKMDQTLAVYQQILTSMPSRNVIRISNDLENLRDLLHVLAFSKSCHLPWASGLETLDSLGGVLEASGYSTEVVALSRLQGSLQDMLWQLDLSPGC : reported kon = 358000

Record summary for ovine leptin L39A/D40A/F41A mutant (ligand, also called L39A/D40A/F41A (ovine)) VSIRKVQDDTKTLIKTIVTRINDISHTQSVSSKQRVTGAAAIPGLHPLLSLSKMDQTLAIYQQILASLPSRNVIQISNDLENLRDLLHLLAASKSCPLPQVRALESLESLGVVLEASLYSTEVVALSRLQGSLQDMLRQLDLSPGC : reported kon = 181000

Record summary for ovine leptin L39A/D40A mutant (ligand, also called L39A/D40A (ovine)) VSIRKVQDDTKTLIKTIVTRINDISHTQSVSSKQRVTGAAFIPGLHPLLSLSKMDQTLAIYQQILASLPSRNVIQISNDLENLRDLLHLLAASKSCPLPQVRALESLESLGVVLEASLYSTEVVALSRLQGSLQDMLRQLDLSPGC : reported kon = 237000

Record summary for human leptin F41A/I42A mutant (ligand, Expressed with an extra Met-Ala at the N-terminus, Met removed; also called F41A/I42A (human)) VPIQKVQDDTKTLIKTIVTRINDISHTQSVSSKQKVTGLDAAPGLHPILTLSKMDQTLAVYQQILTSMPSRNVIRISNDLENLRDLLHVLAFSKSCHLPWASGLETLDSLGGVLEASGYSTEVVALSRLQGSLQDMLWQLDLSPGC : reported kon = 362000

Record summary for ovine leptin F41A/I42A mutant (ligand, also called F41A/I42A (ovine)) VSIRKVQDDTKTLIKTIVTRINDISHTQSVSSKQRVTGLDAAPGLHPLLSLSKMDQTLAIYQQILASLPSRNVIQISNDLENLRDLLHLLAASKSCPLPQVRALESLESLGVVLEASLYSTEVVALSRLQGSLQDMLRQLDLSPGC : reported kon = 250000

Record summary for ovine leptin L39A/D40A/F41A/I42A mutant (ligand, also called L39A/D40A/F41A/I42A (ovine)) VSIRKVQDDTKTLIKTIVTRINDISHTQSVSSKQRVTGAAAAPGLHPLLSLSKMDQTLAIYQQILASLPSRNVIQISNDLENLRDLLHLLAASKSCPLPQVRALESLESLGVVLEASLYSTEVVALSRLQGSLQDMLRQLDLSPGC : reported kon = 109000
